B1: CD2-associated protein, residues 271 to 331; numbered along this chain, Q9Y5K6 (parent)
chain: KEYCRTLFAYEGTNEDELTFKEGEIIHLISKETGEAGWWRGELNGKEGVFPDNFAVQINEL

Variants of: B1
Experiment: abundance fitness (aPCA) (normalised: wild type 0, dead -1); higher = more abundant; growth selection in yeast, the domain comes from the species named
Conditions: Homo sapiens
reported.property: abundance fitness

W38T :: -0.404
V49R :: 0.029
T19G :: -0.431
L43K :: -0.156
N53L :: -0.133

The variant identified as Y3N registered its abundance fitness at -0.292

The variant identified as G45A registered its abundance fitness at -0.437

The variant identified as G12N registered its abundance fitness at -0.646
